Values from PubChem BioAssay

SYSTEM_UNDER_TEST: Voltage-gated potassium channel subunit beta-2 (Rattus norvegicus) (UniProt P62483)
Sequence (P62483 whole entry, looked up): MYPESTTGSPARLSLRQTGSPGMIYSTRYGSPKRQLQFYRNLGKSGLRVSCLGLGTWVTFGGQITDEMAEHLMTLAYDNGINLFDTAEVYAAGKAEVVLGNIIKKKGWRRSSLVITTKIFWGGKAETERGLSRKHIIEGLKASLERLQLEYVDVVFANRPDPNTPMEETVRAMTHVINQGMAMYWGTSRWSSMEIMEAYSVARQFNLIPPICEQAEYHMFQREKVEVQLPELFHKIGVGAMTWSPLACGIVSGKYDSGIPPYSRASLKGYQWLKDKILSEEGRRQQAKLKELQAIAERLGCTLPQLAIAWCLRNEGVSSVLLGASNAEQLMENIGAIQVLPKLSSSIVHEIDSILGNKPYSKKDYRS
ASSAY: inhibitors of rat Kvbeta2 reductase activity – biochemical, NADPH fluorescence, primary screen (AID 622);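 further: slope of raw intensity against log time taken from 70 to 1610 s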
ASSAY_SETUP: recombinant KvBeta, 4-cyanobenzaldehyde reduction, at 10 µM, stronger effect = higher value
Consider the following molecules; for each one, report its fluorescence slope.
Give the figure only, with no unit attached.

Fill in reported fluorescence slope for this entry: O=C(OC1CCOC1=O)c1ccc2ccccc2n1 (stereo unspecified)
-0.324

Entry `O=S(=O)(NCc1ccccn1)c1ccc2c(c1)OCCO2` needs its fluorescence slope filled in; supply it.
-0.354

Determine from records and report fluorescence slope for `COC(=O)C1=C(C)N(Cc2ccco2)C(=O)C1`
-0.42

Give recorded fluorescence slope. `O=C(CCCCC(=O)NCc1cccs1)NCc1cccs1`
-0.571

Retrieve fluorescence slope measured for COc1ccccc1N1CCN(C(CNS(=O)(=O)c2cc(F)ccc2F)c2cccnc2)CC1 (stereo unspecified) and print it.
-0.359

Supply measured fluorescence slope of `CCOC(=O)N1CCN(S(=O)(=O)c2cc(C)c(C)cc2C)CC1` in your reply.
-0.459

* * *

SYSTEM_UNDER_TEST: Voltage-gated potassium channel subunit beta-2 (Rattus norvegicus)
ASSAY: enhancers of rat Kvbeta2 NADPH turnover – biochemical, NADPH fluorescence, primary screen (AID 623);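 further: fluorescence intensity change per second fitted from 20 to 320 s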
ASSAY_SETUP: Recombinant KvBeta, NADPH fluorescence decrease slope, 10 min; at 10 µM; stronger effect = lower value
OBSERVED_PROPERTY: NADPH fluorescence slope
// no unit, no text: just the number

Please indicate NADPH fluorescence slope recorded for CC(C)C(CO)NC(=O)CC(=O)NC(CO)C(C)C (centres undefined)
-5.1e-05

Please report NADPH fluorescence slope for the following molecule: `CCOc1ccc(NC(=O)COC(=O)Cn2cnnn2)cc1OCC`
-2.6e-05

Tell me NADPH fluorescence slope reported for `CCOC(=O)c1sc(NC(=O)CNC(=O)Cn2cnc3sc(C)c(C)c3c2=O)nc1C`
-1.6e-06

Given the molecule `Cc1cccc(C(=O)O)c1NC(=O)c1ccc(F)cc1` , write its reported NADPH fluorescence slope.
-1.3e-05

Input `COc1ccc(N(CC(=O)Nc2ccc3c(c2)OCCO3)S(=O)(=O)c2cccnc2)cc1` , output reported NADPH fluorescence slope.
-7e-05

Provide NADPH fluorescence slope value for the following molecule: COCc1nnc(SCC(=O)NC(C)c2ccccc2)n1-c1ccccc1 (centres undefined)
-3.6e-05

Respond only with NADPH fluorescence slope recorded for `O=C(c1ccc2snnc2c1)N1CCOCC1`
-4.9e-05

Specify reported NADPH fluorescence slope for the molecule shown: `Nc1nc(-c2ccccc2)cc(C(F)(F)F)n1`
1.4e-06

Please give the documented NADPH fluorescence slope of `O=C(c1nn2cccnc2c1Cl)N1CCN(c2ccccc2)CC1`
-2.5e-05

Input `CC(=O)c1ccc(NC(=O)CSc2nnc(-c3ccoc3C)n2Cc2ccccc2)cc1` , output reported NADPH fluorescence slope.
-2e-09

State its NADPH fluorescence slope: CCOc1ccccc1N(C(=O)c1ccco1)C(C(=O)NC1CCCC1)c1cccnc1 (centres undefined)
2.3e-05

Name the recorded NADPH fluorescence slope of the item `COc1ccc(C(=O)CSc2nnc(-c3ccc(C)cc3)o2)cc1` in your answer.
-1.3e-05

Return NADPH fluorescence slope for the following molecule: `CCn1nnc(NC(=O)c2cc3ccccc3o2)n1`
-7.3e-06

// Input: `COC(=O)c1ccc(Oc2nc(NC(C)C)nc(N(C)C)n2)cc1` . Output its NADPH fluorescence slope only.
2.5e-05

Retrieve NADPH fluorescence slope measured for CC(=O)N1c2c(cc(Br)cc2S(=O)(=O)NCC2COc3ccccc3O2)CC1C (centres undefined) and print it.
-7.4e-05

Find the measured NADPH fluorescence slope of `CC(=O)Nc1c(O)[nH]c2ccccc12` and report it.
-5.4e-05

Let me know recorded NADPH fluorescence slope for Cc1nc2sc(C(c3cccc(F)c3)N3CCC(C)CC3)c(O)n2n1 (centres undefined) , thanks.
-7.2e-05

Supply measured NADPH fluorescence slope of `COCCNC(=O)CN1CCC(NC(=O)Nc2ccc(C(F)(F)F)cc2)CC1` in your reply.
-4.5e-05

Supply recorded NADPH fluorescence slope for `CCOC(=O)NC(=O)CSc1nnnn1-c1ccc(Cl)cc1` here.
4.2e-05

Give a short answer stating reported NADPH fluorescence slope for CCC(Sc1ccc2nnc(-c3ccc(F)cc3)n2n1)C(=O)OC (centres undefined) .
-7e-06

Query NADPH fluorescence slope for `Cc1noc(C)c1S(=O)(=O)N1CCC(C(=O)N2CCN(Cc3ccc4c(c3)OCO4)CC2)CC1`
1.3e-06

Output NADPH fluorescence slope of `COc1ccc(C(=O)Nc2ccc(Cl)c(Cl)c2)c(OC)n1`
-6.9e-05

Supply reported NADPH fluorescence slope belonging to this molecule: `O=C(NCc1cccs1)c1cc2c(s1)CS(=O)(=O)C2`
-4.2e-06

Tell us which NADPH fluorescence slope value is on record for `c1cnc(NCCNc2ncccn2)nc1`
-4.1e-05

* * *

I'd appreciate it if you could supply nuclei count values for the items below.
ASSAY: reduction of polyQ htt aggregates in cells – imaging, exon1htt(103Q)mCFP cells, high-content imaging, primary screen (AID 483);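 further: compound exposure lasted 3 days before fixation; percent of the per-plate median nuclei count of sample wells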
ASSAY_SETUP: exon1htt(103Q)mCFP cell line, aggregate imaging, at 2 µM; measured here: cell count, toxicity
Write the answer as a number in %, unit excluded.

# return recorded nuclei count for entry `CC(=O)c1cccc(NC(=O)NCc2ccco2)c1`
74.6

Please report nuclei count for the following compound: `Cc1c(Cc2ccccc2)sc(N)c1C(N)=O`
115

Look up and report measured nuclei count for this entry: Cc1ccc(C)c(N2CCN(CCCNC(=O)Cn3cc4c(n3)CCC(C)C4)CC2)c1 (configuration not stated)
90.9

Write down nuclei count measured for item `CCOc1ccccc1Nc1nnc(SCC(=O)N2CCCC2)s1`
106

Please report nuclei count for the following compound: `Cc1ccccc1OCc1nnc(SCC(=O)NCc2ccccc2)n1C`
106

Tell me measured nuclei count for `O=C(CCn1c(=O)oc2ccccc21)NCCN1CCOCC1` please.
110

Could you please provide reported nuclei count for `Cc1nn(-c2nc3ccccc3[nH]2)c(N)c1-c1ccccc1` ? Thanks!
110

Return nuclei count (reported value) for this compound: C#CC1(O)CC(C)N(C)C(C)C1 (configuration not stated)
71.2

Find the measured nuclei count of `O=C1c2ccccc2C(=O)N1c1cccc(-c2nc3ccccc3o2)c1` and report it.
104

Identify measured nuclei count associated with `C[C@H](NC(=O)Nc1cccc(C(F)(F)F)c1)C(=O)O`
98

Tell me nuclei count reported for `COCCNC(=S)c1ccc(OC)cc1`
121

Specify nuclei count for `O=c1c2cnn(-c3ccccc3)c2ncn1/N=C/c1ccncc1` and stop.
119

* * *

SYSTEM_UNDER_TEST: Alpha-2C adrenergic receptor (Homo sapiens)
ASSAY: compounds altering alpha2C-coupled GIRK flux – cell-based, HEK293 alpha2C/GIRK1/2, thallium flux, primary screen (AID 624);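 further: slope of fluorescence ratio to pre-addition baseline per second over 15 to 24 s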
ASSAY_SETUP: thallium flux BTC fluorescence, at 10 µM, actives lie on both sides
Consider the following compounds; for each one, report its slope.
Lab note: jot down the number only; don't add units.

// fetch slope given entry `CS(=O)(=O)N(CC(=O)Nc1cccc(F)c1)Cc1ccccc1`
0.00637

Note slope for the compound shown: `O=C(c1ccc2ccccc2n1)N1CCN(c2ccccc2)CC1`
0.00614

Return reported slope. Input compound: `O=C(N1CCN(c2ccccc2F)CC1)C12CC3CC(CC(C3)C1)C2`
0.00709

Look up and report measured slope for this entry: `CC(=O)c1c(OC(=O)c2ccco2)c2ccccc2n1C`
0.00641

Respond only with slope recorded for `CCN(CC)C(=O)COc1ccc2oc(C)c(C(=O)OC(C)C)c2c1`
0.00275

# return recorded slope for entry `Cc1cc(=O)oc2cc(OCC(=O)OCC(=O)N3CCc4ccccc43)ccc12`
0.00553

Tell me its slope given `COc1cc(C(=O)Nc2cc(-c3ccccc3)[nH]n2)cc(OC)c1OC` as the entry.
0.00552

State its slope for this compound: Cc1nc2cc(NC(=O)N3c4ccccc4CC3C)ccc2o1 (stereo unspecified)
0.00476

Dear colleague, please send me the reported slope for CC1CCCC(N2CCN(C(=O)c3ccc(F)cc3)CC2)C1 (stereo unspecified) when you can.
0.00721

Assign slope to the following record: `COc1cccc(NC(=O)N2CCC(N3CCCCC3)CC2)c1`
0.00728

Retrieve slope measured for `Cc1cc(C)cc(NC(=O)CN(C)S(=O)(=O)c2cnc[nH]2)c1` and print it.
0.00489

* * *

ASSAY: inhibitors of TNFa-induced NFkB p65 translocation, primary screen, imaging, HUVEC, MLSMR starter and 10KST1 sets (AID 438);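 further: compound added about 3h40 before a 20 min TNFalpha stimulation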
ASSAY_SETUP: HUVEC TNFa-induced p65 nuclear translocation; measured here: nuclei count (cytotoxicity indicator), at 2.08 µM
Provide the recorded cell count for the entries that follow.
Lab note: record the figure alone, no unit after it.

Note cell count for the compound shown: `Nc1cc(C(=O)O)ccc1Nc1ccc(F)c(F)c1`
693

Answer with the recorded cell count for the compound listed here: Cc1ccc(CN2C(=O)CCC2C(=O)NCC2CCCO2)cc1 (stereo unspecified)
317

Give me measured cell count, please, for this compound: CCS(=O)(=O)Nc1ccc(C(=O)CC2(O)C(=O)Nc3ccccc32)cc1 (stereo unspecified)
602

Check the records and state cell count for `Cc1cccc(NC(=O)c2cc3ccccc3o2)c1`
549

Return cell count for the following compound: `Nc1ccc(-n2c(N)c(C(=O)NCc3ccc4c(c3)OCO4)c3nc4ccccc4nc32)cc1`
334

Give the measured cell count for O=C1CC(c2ccc(S(=O)(=O)N3CCN(c4ccccc4)CC3)cc2)CN1 (stereo unspecified)
426
